Tested on: SK-MEL-2 melanoma
Experiment: NCI tumour cell line growth inhibition, 48 h; in the data active = GI50 below about 0.43 µM; inactive = the rest
Classes used: yes for active, no for inactive

Molecule	Tested On	Cat
O=C1C2=C(C(=O)c3c(O)ccc(O)c31)N(c1cccnc1)Cc1ccccc1O2	SK-MEL-2 melanoma	no
COc1cc(/C=C/C(=O)c2ccc(F)cc2)ccc1OCCCCOc1cc2c(cc1OC)C(=O)N1CCCC1C=N2 (centres undefined)	SK-MEL-2 melanoma	no
CS(=O)(=O)OCCCCOS(C)(=O)=O	SK-MEL-2 melanoma	no
COc1ccc(-c2c(-c3cc4c(c(OC)c3OC)OCO4)noc2N)cc1	SK-MEL-2 melanoma	yes
Cc1ccccc1NC(=O)N/C(N)=N/c1nc(C)c(C)s1	SK-MEL-2 melanoma	no
COc1ccc(C(=O)OC2C(OC3C(O)COC(O[C@H]4C[C@H]5[C@@H]6CC=C7C[C@@H](O)CC[C@]7(C)[C@H]6CC[C@]5(C)[C@H]4[C@H](C)C(=O)CCC(C)C)C3OC(=O)C(C)C)OCC(O)C2O)cc1 (some centres undefined)	SK-MEL-2 melanoma	yes
Oc1ccccc1/C=N/Nc1nc2ccccc2s1	SK-MEL-2 melanoma	no
O=C1c2cccc3c([N+](=O)[O-])ccc(c23)C(=O)N1CCCCl	SK-MEL-2 melanoma	no
C=CC1CC12C(=O)C1OC2(C)C2C(=O)c3c(O)cccc3C(=O)C12 (centres undefined)	SK-MEL-2 melanoma	no

---

Test system: SK-OV-3 ovarian
Experiment: NCI tumour cell line growth inhibition, 48 h; in the data active = GI50 below about 0.43 µM; inactive = the rest
Classes used: yes (1) (active), no (0) (inactive)

Compound	Tested On	Cat
CCN(CC)c1ccc(CNc2cc(C)nc3ccc(OC)cc23)cc1	SK-OV-3 ovarian	no (0)
C=CC1CC12C(=O)C1OC2(C)C2C(=O)c3c(O)cccc3C(=O)C12 (stereo not given)	SK-OV-3 ovarian	no (0)
CCCCCCCC(=O)SCC/C=C/[C@@H]1CC(=O)NCc2cccc(n2)C2=N[C@@](C)(CS2)C(=O)N[C@@H](C(C)C)C(=O)O1	SK-OV-3 ovarian	yes (1)
CC/C=C\C[C@H](O)C/C=C1/C(=O)C=C[C@@H]1C/C=C\CCCC(=O)OCCS(=O)(=O)c1ccccc1	SK-OV-3 ovarian	no (0)
COc1cc2c(cc1OCCCOc1cc3c(cc1OC)C(=O)N1CC(F)(F)C[C@H]1C=N3)N=C[C@@H]1CC(F)(F)CN1C2=O	SK-OV-3 ovarian	no (0)
COc1ccccc1CN=C1NC(=O)/C(=C/c2ccc3ncccc3c2)S1	SK-OV-3 ovarian	no (0)
COc1ccc(Nc2[nH]n(C3=Nc4ccccc4Sc4ccccc43)c(=O)c2C#N)cc1	SK-OV-3 ovarian	no (0)
COc1ccc2nc(-c3ccc(Cl)cc3)cc(-c3nnc(SCC(=O)Nc4ccc(/C(C)=N\O)cc4)o3)c2c1	SK-OV-3 ovarian	no (0)
O=c1ncc(I)c[nH]1	SK-OV-3 ovarian	no (0)
CN(C)c1ccc(/C=N/NC(=O)CSc2nc3sc4c(c3c(=O)n2-c2ccccc2)CCCCC4)cc1	SK-OV-3 ovarian	no (0)
Nc1nc2ccccc2c2[nH]c3ccccc3c12	SK-OV-3 ovarian	no (0)
O=C(NCCN1CCOCC1)Nc1nc2ccc(Sc3nnc4ccc(-c5ccc(F)cc5)nn34)cc2s1	SK-OV-3 ovarian	no (0)
COc1cc(-c2nn(-c3ccc(NC(=O)Nc4ccc(Cl)c(C(F)(F)F)c4)cc3)cc2-c2ccncc2)ccc1Cl	SK-OV-3 ovarian	no (0)
Cc1cc(N2CCCCC2)nc(NCc2cc(Nc3ccnc4cc(Cl)ccc34)ccc2F)n1	SK-OV-3 ovarian	no (0)
COc1ccc(NC(=O)COc2ccccc2)c(C(N)=O)c1	SK-OV-3 ovarian	no (0)

---

System: A549 NSCLC
Assay: NCI tumour cell line growth inhibition, 48 h
Below is a list of entries, each paired with its recorded GI50 value.
Parameter Measured: GI50

Molecular String	Parameter Measured	Reported Value
COc1cc(-c2nn(-c3ccc(NC(=O)Nc4ccc(Cl)c(C(F)(F)F)c4)cc3)cc2-c2ccncc2)ccc1Cl	GI50	2.66 µM
CS(=O)(=O)OCCCCOS(C)(=O)=O	GI50	538 µM
CC/C=C\C[C@H](O)C/C=C1/C(=O)C=C[C@@H]1C/C=C\CCCC(=O)OCCS(=O)(=O)c1ccccc1	GI50	6.04 µM
COc1ccc2c(c1)O/C(=C\c1ccc([N+](=O)[O-])o1)C2=O	GI50	2.43 µM
C/C(=N\NC(=O)c1cccc(S(=O)(=O)N2CCN(C)CC2)c1)c1cc(Cl)ccc1O	GI50	0.761 µM
C[C@]12CC/C(=N\O)C[C@@H]1CC[C@@H]1[C@@H]2CC[C@]2(C)/C(=N/O)CC[C@@H]12	GI50	52.7 µM
COc1ccc(Nc2[nH]n(C3=Nc4ccccc4Sc4ccccc43)c(=O)c2C#N)cc1	GI50	1.62 µM
N=C(N)c1ccc(CS(=O)(=O)F)cc1	GI50	> 100 µM
CN(C)c1ccc(/C=N/NC(=O)CSc2nc3sc4c(c3c(=O)n2-c2ccccc2)CCCCC4)cc1	GI50	4.25 µM

---

System: EKVX NSCLC
Experiment: NCI tumour cell line growth inhibition, 48 h
Below is a list of entries, each paired with its recorded TGI value.
Parameter Measured: TGI

Molecule	Reported Value
CCOC(=O)c1ccc(OCc2nc3cc(C(F)(F)F)ccc3nc2-c2ccccc2)cc1	> 100 µM
CN(C)c1ccc(/C=N/NC(=O)CSc2nc3sc4c(c3c(=O)n2-c2ccccc2)CCCCC4)cc1	> 100 µM
CO[C@H](C(=O)O[C@H]1C(=O)N2CCC3CCC1C32C)c1ccccc1 (stereo not given in full)	> 100 µM
CCCCCCCCCCCCCCC(C(=O)[O-])[n+]1ccccc1 (stereo not given)	> 100 µM
COc1ccc(C(=O)NNC(=O)c2nsc3ccccc23)cc1	> 100 µM
Cc1cccc(NC(N)=S)c1	> 100 µM
CCOC(=O)C1Nc2ccc([N+](=O)[O-])cc2[C@H]2OCC[C@@H]12 (stereo not given in full)	> 100 µM
Clc1cc(Cl)cc(C2SCc3nc4ccccc4n32)c1 (stereo not given)	70.8 µM
O=C(O)\C=C/C=C/C=C/C=C/C(=O)O	> 100 µM
Nc1cc(N2CCOCC2)nc(=O)n1-c1ccccc1	> 100 µM
Clc1cc2nc[nH]c2cc1Cl	> 100 µM
COc1ccc(Nc2[nH]n(C3=Nc4ccccc4Sc4ccccc43)c(=O)c2C#N)cc1	> 100 µM
O=C(CC(O)c1cccnc1)CC(O)c1cccnc1 (stereo not given)	43.8 µM
CSc1n[nH]c2c1c(C)nn2-c1ccccc1	> 100 µM
Cc1cc(C)c(-n2c(C)c(C)c(C#N)c2N)c(C)c1	87.6 µM

---

Test system: SK-MEL-28 melanoma
Assay: NCI tumour cell line growth inhibition, 48 h; in the data active = GI50 below about 0.43 µM; inactive = the rest
Classes used: active, inactive

Molecular String	Tested On	Cat
O=C1C2=C(C(=O)c3c(O)ccc(O)c31)N(c1cccnc1)Cc1ccccc1O2	SK-MEL-28 melanoma	active
Cc1cc(C)nc(NS(=O)(=O)c2ccc(Nc3nc4nc(NCc5ccccc5)nc(-c5ccc(O)cc5)c4c(=O)[nH]3)cc2)n1	SK-MEL-28 melanoma	inactive
Cc1cc(NCCCNc2ccnc3cc(Cl)ccc23)nc(Nc2ccc(C(=O)N3CCCCC3)cc2)n1	SK-MEL-28 melanoma	inactive
O=C1c2cccc3c([N+](=O)[O-])ccc(c23)C(=O)N1CCCCl	SK-MEL-28 melanoma	inactive
O=C(NCCN1CCOCC1)Nc1nc2ccc(Sc3nnc4ccc(-c5ccc(F)cc5)nn34)cc2s1	SK-MEL-28 melanoma	inactive

---

Test system: MDA-MB-435
Experiment: NCI tumour cell line growth inhibition, 48 h; in the data active = GI50 below about 0.43 µM; inactive = the rest
Classes used: YES = active, NO = inactive

Molecule	Cat
O=C(Nc1ccc(-n2ccc3c(NC(=O)c4ccccc4)ncnc32)cc1)Nc1ccc(Cl)c(C(F)(F)F)c1	NO
COc1ccc2c(c1)O/C(=C\c1ccc([N+](=O)[O-])o1)C2=O	NO
COc1cc2c(cc1OCCCOc1cc3c(cc1OC)C(=O)N1CC(F)(F)C[C@H]1C=N3)N=C[C@@H]1CC(F)(F)CN1C2=O	NO
Cc1ccc(C(=O)Nc2ccc(CN3CCN(C)CC3)c(C(F)(F)F)c2)cc1C#Cc1cnc(N)c2ccc(C#N)cc12	YES
Cc1c(C)n(CC(O)CNC2CCCCC2C)c2ccccc12 (stereo not given)	NO

---

Below is a list of entries, each paired with its recorded TGI value.
Tested on: HOP-62 NSCLC
Assay: NCI tumour cell line growth inhibition, 48 h
Parameter Measured: TGI

Compound	Tested On	Parameter Measured	Reported Value
O=C1CC2(CCN(CC3COc4ccccc4O3)CC2)C(=O)N1N1CCCCCC1 (stereo unspecified)	HOP-62 NSCLC	TGI	> 100 µM
ClCCN(CC#CCCCC#CCN(CCCl)CCCl)CCCl	HOP-62 NSCLC	TGI	29.3 µM
CCN(CC)c1ccc(CNc2cc(C)nc3ccc(OC)cc23)cc1	HOP-62 NSCLC	TGI	21 µM
CN(Cc1ccccc1)c1ncnc2ccc(Br)cc12	HOP-62 NSCLC	TGI	25.9 µM
COc1ccc2c3c(ccc2c1)NC(C(=O)O)CC3 (stereo unspecified)	HOP-62 NSCLC	TGI	> 100 µM
COC1=CC(=O)c2c(O)c3c(c(O)c2C1=O)OC1(Oc2c(cc4cc(C)oc(=O)c4c2O)CC1O)C3O (stereo unspecified)	HOP-62 NSCLC	TGI	> 100 µM
COc1ccc(-c2cnc(SCC(=O)c3c(C)n(C)n(-c4ccccc4)c3=O)n2-c2ccc(OC)cc2)cc1	HOP-62 NSCLC	TGI	> 50 µM
CC/C=C\C[C@H](O)C/C=C1/C(=O)C=C[C@@H]1C/C=C\CCCC(=O)OCCS(=O)(=O)c1ccccc1	HOP-62 NSCLC	TGI	10.5 µM
C=C1CC(COc2ccc3c(C)c(Cl)c(=O)oc3c2)(c2ccccc2)OC1=O (stereo unspecified)	HOP-62 NSCLC	TGI	20.3 µM
Clc1ccc(-c2c3nc(c(-c4ccc(Cl)cc4)c4ccc([nH]4)c(-c4ccc(Cl)cc4)c4nc(c(-c5ccc(Cl)cc5)c5ccc2[nH]5)C=C4)C=C3)cc1	HOP-62 NSCLC	TGI	> 100 µM
O=C1OCCC12CN(Cc1ccccc1)N=N2 (stereo unspecified)	HOP-62 NSCLC	TGI	> 100 µM
CCCCN1C(=O)C2c3[nH]c4ccccc4c3C3CCCCC3C2C1=O (mixture of isomers)	HOP-62 NSCLC	TGI	19.4 µM
O=C1CSC(c2c[nH]c3ccccc23)N1c1cccc([N+](=O)[O-])c1 (stereo unspecified)	HOP-62 NSCLC	TGI	> 100 µM
COc1cc(-c2nn(-c3ccc(NC(=O)Nc4ccc(Cl)c(C(F)(F)F)c4)cc3)cc2-c2ccncc2)ccc1Cl	HOP-62 NSCLC	TGI	3.93 µM
Cc1ccc2c(=O)cc(-c3cc4ccccc4s3)[nH]c2n1	HOP-62 NSCLC	TGI	> 100 µM
N=C(N)SC(c1ccccc1)c1ccccc1	HOP-62 NSCLC	TGI	41.1 µM
COc1ccc(OC)c2sc(N3C(=O)/C(=C/c4ccc(SC)cc4)N=C3c3ccccc3)nc12	HOP-62 NSCLC	TGI	40 µM
Cc1cc2nn(C3CCCCO3)nc2cc1C (stereo unspecified)	HOP-62 NSCLC	TGI	> 100 µM
CSc1ccc(/C=C/C(=O)c2nc3ccccc3[nH]2)cc1	HOP-62 NSCLC	TGI	82.1 µM
CC(SC(=S)N(C)C)C(=O)Nc1nnc(-c2ccc(Cl)cc2)o1 (stereo unspecified)	HOP-62 NSCLC	TGI	> 100 µM
O=C1/C(=N/N=C(c2ccccc2)c2ccccc2)c2ccccc2-c2ccccc21	HOP-62 NSCLC	TGI	> 100 µM
COC(=O)c1ccc(CS(=O)(=O)c2ccccc2)cc1	HOP-62 NSCLC	TGI	> 100 µM
CC1(C)CCc2cc3c(cc2O1)OC(C)(C)CC3=O	HOP-62 NSCLC	TGI	> 100 µM
COc1cc(/C=C/C(=O)c2ccc(F)cc2)ccc1OCCCCOc1cc2c(cc1OC)C(=O)N1CCCC1C=N2 (stereo unspecified)	HOP-62 NSCLC	TGI	12.5 µM
CC(=O)OC1COC(n2c(O)c(N=Nc3ccc([N+](=O)[O-])cc3)c3cc(Br)c([N+](=O)[O-])cc32)C(OC(C)=O)C1OC(C)=O (stereo unspecified)	HOP-62 NSCLC	TGI	> 100 µM
COc1cccc([C@@H]2C/C(=N\NC(=O)C(=O)N[C@@H](C)c3ccccc3)c3cc4c(cc3N2)OCO4)c1	HOP-62 NSCLC	TGI	> 100 µM
CCOC(=O)CCC(NC(=O)C(CCC(=O)OCC)NC(=O)C(Cc1ccc([N+](=O)[O-])cc1)NC(C)=O)C(=O)NNC(=O)OC(C)(C)C (stereo unspecified)	HOP-62 NSCLC	TGI	> 100 µM
CC[C@@]1(O)C(=O)OCc2c1cc1n(c2=O)Cc2cc3c([N+](=O)[O-])c(O)ccc3nc2-1	HOP-62 NSCLC	TGI	0.0964 µM
CSC1=C(C(=O)N(COCC[Si](C)(C)C)c2ccccc2Br)CCC(C(C)(C)C)C1 (stereo unspecified)	HOP-62 NSCLC	TGI	53.2 µM
Cc1c(C)n(CC(O)CNC2CCCCC2C)c2ccccc12 (stereo unspecified)	HOP-62 NSCLC	TGI	32 µM
CCOc1ccccc1NC(=O)CSc1nnc(Cc2ccccc2)o1	HOP-62 NSCLC	TGI	> 100 µM
CCN1C(=O)/C(=C\c2coc3ccccc3c2=O)SC1=S	HOP-62 NSCLC	TGI	> 100 µM
CO[C@H](C(=O)O[C@H]1C(=O)N2CCC3CCC1C32C)c1ccccc1 (stereo partly specified)	HOP-62 NSCLC	TGI	> 100 µM
COCn1c(=O)n(C)c(=O)c2c1nc1c(c(=O)n(C)c(=O)n1COC)[n+]2[O-]	HOP-62 NSCLC	TGI	59.1 µM
CC(C)(c1ccccc1)c1ccc(Oc2ccc3c(c2)-c2nc-3nc3[nH]c(nc4nc(nc5[nH]c(n2)c2ccc(Oc6ccc(C(C)(C)c7ccccc7)cc6)cc52)-c2cc(Oc5ccc(C(C)(C)c6ccccc6)cc5)ccc2-4)c2ccc(Oc4ccc(C(C)(C)c5ccccc5)cc4)cc32)cc1	HOP-62 NSCLC	TGI	> 100 µM
[N-]=[N+]=CC(=O)OC1CCc2ccccc21 (stereo unspecified)	HOP-62 NSCLC	TGI	> 100 µM

Values were extracted from PubChem BioAssay (NCI).
